# maps each entry to its EC50 in nM (mean); L929s + Act D cytotoxicity assay, human TNFa @ 0.5 ng/ml
Molecular target: human TNFα (human, UniProt P01375 77-233)
Sequence (P01375 77-233 limits assumed): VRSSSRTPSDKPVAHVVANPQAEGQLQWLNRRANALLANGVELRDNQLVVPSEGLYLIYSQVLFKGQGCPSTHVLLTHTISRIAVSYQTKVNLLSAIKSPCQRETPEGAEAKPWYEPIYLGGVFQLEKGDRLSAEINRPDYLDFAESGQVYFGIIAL
Assay: cell-based or functional assay
readout.kind: EC50 in nM (mean); L929s + Act D cytotoxicity assay, human TNFa @ 0.5 ng/ml (nM)

binder: TNF18 (TNF2 HUM4) (VHH, Humanised TNF2, first round) VHH: EVQLVESGGGLVQPGGSLRLSCAASGRTFSEPSGYTYTIGWFRQAPGKGREFVARIYWSSGLTYYADSVKGRFTISRDIAKNTVDLQMNSLRPEDTAVYYCAARDGIPTSRSVGSYNYWGQGTQVTVSS
measured: 3.13
//
binder: TNF19 (TNF2 HUM5) (VHH, Humanised TNF2, first round) VHH: EVQLVESGGGLVQPGGSLRLSCAASGRTFSEPSGYTYTIGWFRQAPGKGREFVARIYWSSGLTYYADSVKGRFTISRDIAKNTVDLQMNSLKPEDTAVYYCAARDGIPTSRSVGSYNYWGQGTLVTVSS
measured: 7.37
//
binder: TNF21 (TNF3 HUM2) (VHH) VHH: EVQLVESGGGLVQPGGSLRLSCAASGFTFSNYYMGWFRQAPGKGRELLGNISWRGYNIYYKDSVKGRFTISRDDSKNTIYLQMNSLKPEDTAVYYCAASILPLSDDPGWNTYWGQGTQVTVSS
measured: 0.889
//
binder: TNF33 (TNF3 HUM1) (VHH) VHH: EVQLVESGGGLVQPGGSLRLSCAASGRSLSNYYMGWFRQAPGKGRELLGNISWRGYNIYYKDSVKGRFTISRDDSKNTIYLQMNSLRPEDTAVYYCAASILPLSDDPGWNTYWGQGTLVTVSS
measured: 0.3
//
binder: PMP1G5 (TNF2) (VHH, also called WT TNF2; not shown: C-terminal c-myc tag and (His)6 tag coded by vector pAX051) VHH: QVQLVESGGGLVQAGGSLRLSCAASGRTFSEPSGYTYTIGWFRQAPGKEREFVARIYWSSGLTYYADSVKGRFTISRDIAKNTVDLLMNSLKPEDTAVYYCAARDGIPTSRSVGSYNYWGQGTQVTVSS
measured: 1.41

All figures here come from patent US20200079844A1.
